Biological target: Jak2 (Homo sapiens)
Construct: The kinase domain of humanJAK2 was amplified from U937mRNA; His tag (from pFastBac HTc vector) (N); made in house; host or cells: baculovirus; Sf9 insect cells for virus, High Five cells for large-scale production
Assay: JAK2 kinase domain assay (ELISA or Alphascreen)
Assay type: biochemical
Conditions: capacity to inhibit 50% of activity at 50 μM; read-out: Jak2 inhibitory activity
Procedure: For screening purposes, compounds were diluted in 96 well plates at a concentration of 20 μM. Plates were warmed at 37° C. for 30 minutes before assay. […] Kinase assays were performed either in a 96 well capture-based ELISA assay or in 384 well Optiplates (Packard) using an Alphascreen Protein Tyrosine Kinase kit. […] In the ELISA assay tyrosine phosphorylation was quantitated following transfer to an avidin coated ELISA plate using peroxidase-linked anti-phospho-tyrosine antibody PY20. […]
experimental.readout: inhibition at 50 µM

Req: Answer with reported inhibition at 50 µM of C[C@H](Nc1cncc(-n2cnc3ccc(NC(=O)c4ccccc4)cc32)n1)c1ccccc1
Resp: < 50%

Req: Answer with reported inhibition at 50 µM of C[C@H](Nc1cncc(-n2cnc(-c3ccccc3)c2)n1)c1ccccc1
Resp: < 50%

More entries:
Req: Answer with reported inhibition at 50 µM of C[C@H](Nc1cncc(-n2cnc3ccc(C(=O)NCCCCN4CCOCC4)cc32)n1)c1ccccc1
Resp: > 50%

Req: Answer with reported inhibition at 50 µM of C[C@H](Nc1cncc(-n2cnc3cc(C(=O)NCCO)ccc32)n1)c1ccccc1
Resp: > 50%

Req: Answer with reported inhibition at 50 µM of C[C@H](Nc1cncc(-n2cnc3cc(C(=O)NCc4ccccc4)ccc32)n1)c1ccccc1
Resp: < 50%

Req: Answer with reported inhibition at 50 µM of C[C@H](Nc1cncc(-n2cnc3ccc(N)cc32)n1)c1ccccc1
Resp: > 50%

Req: Answer with reported inhibition at 50 µM of C[C@H](Nc1cncc(-n2cnc3cc(Br)ccc32)n1)c1ccccc1
Resp: > 50%

* * *

inhibition at 50 µM listing for selected compounds.
target: abl (Homo sapiens); assay: abl kinase assay (ELISA or Alphascreen); type: biochemical; conditions: capacity to inhibit 50% of activity at 50 μM; read-out: abl inhibitory activity
Sequence (P00519 242-493 limits assumed, species assumed): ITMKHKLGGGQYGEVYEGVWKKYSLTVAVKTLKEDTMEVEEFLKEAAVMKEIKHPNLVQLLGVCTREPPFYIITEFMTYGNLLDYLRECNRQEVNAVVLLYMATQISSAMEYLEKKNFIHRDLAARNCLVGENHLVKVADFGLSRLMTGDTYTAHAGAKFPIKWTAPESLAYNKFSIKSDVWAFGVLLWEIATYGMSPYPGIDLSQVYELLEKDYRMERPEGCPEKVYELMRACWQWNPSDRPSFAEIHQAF

Req: Give inhibition at 50 µM only, for C[C@@H](Nc1cncc(-n2cnc3ccccc32)n1)c1ccccc1 , using abl (Homo sapiens) data.
Resp: > 50%

Req: Give inhibition at 50 µM only, for Cc1cn(-c2cncc(NCc3ccc(F)cc3)n2)cn1 , using abl (Homo sapiens) data.
Resp: < 50%

Req: Give inhibition at 50 µM only, for C[C@H](Nc1cncc(-n2cnc3ccc(C(=O)N4CCOCC4)cc32)n1)c1ccccc1 , using abl (Homo sapiens) data.
Resp: > 50%

Req: Give inhibition at 50 µM only, for C[C@H](Nc1cncc(-n2cnc3cc(-c4ccncc4)ccc32)n1)c1ccccc1 , using abl (Homo sapiens) data.
Resp: > 50%

Req: Give inhibition at 50 µM only, for C[C@@H](Nc1cncc(-n2cnc3ncccc32)n1)c1ccccc1 , using abl (Homo sapiens) data.
Resp: < 50%

Req: Give inhibition at 50 µM only, for C[C@H](Nc1cncc(-n2cnc3cc(C(=O)NCCN(C)C)ccc32)n1)c1ccccc1 , using abl (Homo sapiens) data.
Resp: > 50%

Req: Give inhibition at 50 µM only, for C[C@H](Nc1cncc(-n2cnc3ccc(NC(=O)C(C)(C)C)cc32)n1)c1ccccc1 , using abl (Homo sapiens) data.
Resp: > 50%

Req: Give inhibition at 50 µM only, for C[C@H](Nc1cncc(-n2cnc3cc(C(=O)N4CCN(C)CC4)ccc32)n1)c1ccccc1 , using abl (Homo sapiens) data.
Resp: > 50%

Req: Give inhibition at 50 µM only, for C[C@H](Nc1cncc(-n2cnc(-c3ccccc3)c2)n1)c1ccccc1 , using abl (Homo sapiens) data.
Resp: < 50%

Shifting focus to the compound that follows.
Req: Give inhibition at 50 µM only, for c1cn(-c2cncc(Nc3ccc(N4CCOCC4)cc3)n2)cn1 , using abl (Homo sapiens) data.
Resp: > 50%

* * *

biological target: kdr (Homo sapiens); assay: kdr kinase assay (ELISA or Alphascreen); type: biochemical; conditions: capacity to inhibit 50% of activity at 50 μM; read-out: kdr inhibitory activity
Sequence (P35968 834-1162 limits assumed, species assumed): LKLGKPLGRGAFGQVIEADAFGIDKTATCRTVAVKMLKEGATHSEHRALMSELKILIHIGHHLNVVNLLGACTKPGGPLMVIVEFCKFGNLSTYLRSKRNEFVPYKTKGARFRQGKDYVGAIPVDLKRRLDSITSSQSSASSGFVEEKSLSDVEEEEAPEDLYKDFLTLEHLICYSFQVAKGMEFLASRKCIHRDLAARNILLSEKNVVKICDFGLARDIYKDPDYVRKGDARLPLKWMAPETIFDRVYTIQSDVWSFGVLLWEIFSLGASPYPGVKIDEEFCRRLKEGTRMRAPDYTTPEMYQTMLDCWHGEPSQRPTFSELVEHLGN
experimental.readout: inhibition at 50 µM

Req: Answer with reported inhibition at 50 µM of C[C@H](Nc1cncc(-n2cnc3cc(NC(=O)C4CCCN4)ccc32)n1)c1ccccc1 (stereo partly shown)
Resp: > 50%

Req: Answer with reported inhibition at 50 µM of c1ccc(CNc2cncc(-n3cnc4ccccc43)n2)cc1
Resp: < 50%

Req: Answer with reported inhibition at 50 µM of C[C@H](Nc1cncc(-n2cnc3cc(CN4CCN(C)CC4)ccc32)n1)c1ccccc1
Resp: > 50%

Req: Answer with reported inhibition at 50 µM of CC(Nc1cncc(-n2cnc3ccc(CN4CCN(C)CC4)cc32)n1)c1ccc(F)cc1 (stereo not shown)
Resp: > 50%

Req: Answer with reported inhibition at 50 µM of C[C@H](Nc1cncc(-n2cnc3ccc(NC(=O)c4cccnc4)cc32)n1)c1ccccc1
Resp: > 50%

Req: Answer with reported inhibition at 50 µM of COc1ccc([C@H](C)Nc2cncc(-n3cnc4ccccc43)n2)cc1
Resp: > 50%

Req: Answer with reported inhibition at 50 µM of C[C@H](Nc1cncc(-n2cnc3ccc(C(N)=O)cc32)n1)c1ccccc1
Resp: > 50%

Req: Answer with reported inhibition at 50 µM of C[C@H](Nc1cncc(-n2cnc(-c3ccccc3)c2)n1)c1ccccc1
Resp: < 50%

More entries:
Req: Answer with reported inhibition at 50 µM of CCN(CC)Cc1ccc2ncn(-c3cncc(NC(C)c4ccc(F)cc4)n3)c2c1 (stereo not shown)
Resp: > 50%

Req: Answer with reported inhibition at 50 µM of C[C@H](Nc1cncc(-n2cnc3cc(CO)ccc32)n1)c1ccccc1
Resp: > 50%

* * *

molecular target: Jak2 (Homo sapiens, UniProt O60674); construct: The kinase domain of humanJAK2 was amplified from U937mRNA; His tag (from pFastBac HTc vector) (N); made in house; host or cells: baculovirus; Sf9 insect cells for virus, High Five cells for large-scale production; test: JAK2 kinase domain assay (ELISA or Alphascreen); assay type: biochemical; conditions: capacity to inhibit 50% of activity at 50 μM; read-out: Jak2 inhibitory activity
Sequence (O60674 849-1124 limits assumed): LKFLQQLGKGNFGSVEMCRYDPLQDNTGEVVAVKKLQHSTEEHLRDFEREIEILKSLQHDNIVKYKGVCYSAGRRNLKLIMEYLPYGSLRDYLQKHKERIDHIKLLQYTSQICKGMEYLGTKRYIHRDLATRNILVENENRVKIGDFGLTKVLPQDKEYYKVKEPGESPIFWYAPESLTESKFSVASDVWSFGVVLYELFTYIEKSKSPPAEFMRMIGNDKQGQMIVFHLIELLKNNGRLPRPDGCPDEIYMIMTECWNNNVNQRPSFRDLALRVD
experimental.readout: inhibition at 50 µM

The cases that follow already have their inhibition at 50 µM on record.
Req: Answer with reported inhibition at 50 µM of C[C@H](Nc1cncc(-n2cnc3cc(C(=O)N4CCOCC4)ccc32)n1)c1ccccc1
Resp: < 50%

Req: Answer with reported inhibition at 50 µM of c1ccc2c(c1)ncn2-c1cncc(Nc2ccc(N3CCOCC3)cc2)n1
Resp: < 50%

Req: Answer with reported inhibition at 50 µM of C[C@H](Nc1cncc(-n2cnc3cnccc32)n1)c1ccccc1
Resp: > 50%

Req: Answer with reported inhibition at 50 µM of C[C@H](Nc1cncc(-n2cnc3cc(NC(=O)C(C)(C)C)ccc32)n1)c1ccccc1
Resp: > 50%

Req: Answer with reported inhibition at 50 µM of C[C@H](Nc1cncc(-n2cnc3cc(C(=O)Nc4ccccc4)ccc32)n1)c1ccccc1
Resp: < 50%

Req: Answer with reported inhibition at 50 µM of C[C@H](Nc1cncc(-n2cnc3ccc(C(=O)N4CCOCC4)cc32)n1)c1ccccc1
Resp: < 50%

Req: Answer with reported inhibition at 50 µM of C[C@H](Nc1cncc(-n2cnc3cc(N)ccc32)n1)c1ccccc1
Resp: > 50%

Req: Answer with reported inhibition at 50 µM of COCC(=O)Nc1ccc2c(c1)ncn2-c1cncc(N[C@@H](C)c2ccccc2)n1
Resp: < 50%

More entries:
Req: Answer with reported inhibition at 50 µM of C[C@H](Nc1cncc(-n2cnc3ccc(NC(=O)c4ccncc4)cc32)n1)c1ccccc1
Resp: > 50%

Req: Answer with reported inhibition at 50 µM of CCN(CC)Cc1ccc2ncn(-c3cncc(NC(C)c4ccc(F)cc4)n3)c2c1 (centres unmarked)
Resp: > 50%

Req: Answer with reported inhibition at 50 µM of Cc1cn(-c2cncc(NCc3ccc(F)cc3)n2)cn1
Resp: > 50%

Req: Answer with reported inhibition at 50 µM of C[C@H](Nc1cncc(-n2cnc3ccccc32)n1)c1ccccc1
Resp: > 50%

Req: Answer with reported inhibition at 50 µM of C[C@H](Nc1cncc(-n2cnc3cc(CO)ccc32)n1)c1ccccc1
Resp: > 50%

Req: Answer with reported inhibition at 50 µM of C[C@H](Nc1cncc(-n2cnc3cc(C4=NCCO4)ccc32)n1)c1ccccc1
Resp: < 50%

Req: Answer with reported inhibition at 50 µM of c1ccc(CNc2cncc(-n3ccnc3)n2)cc1
Resp: < 50%

Req: Answer with reported inhibition at 50 µM of C[C@H](Nc1cncc(-n2cnc3cc(NC(=O)C4CC4)ccc32)n1)c1ccccc1
Resp: < 50%

Req: Answer with reported inhibition at 50 µM of C[C@H](Nc1cncc(-n2cnc3cc(C(=O)NCCCCN4CCOCC4)ccc32)n1)c1ccccc1
Resp: > 50%
